Entry source: the supplement of paper PMC10600219

System: NCI-H2228 parental
method: cell viability relative to vehicle (fraction of vehicle); NCI-H2228 is an ALK-positive lung cancer line and DTP means drug-tolerant persister; higher = less growth inhibition
condition: 100 nM; treatment time 6 days
Structures can show the parent of a compound that is named as a salt. Over roughly 2,800 compounds, “cell viability relative to vehicle” has its median near 1.1; the lowest 2% begin near 0.19. What follows is part of a selection rich in the lowest values, with near analogues and random picks from the rest.
Binary label based on cell viability with cut-off 0.2: below gives Fulfilled, not below gives Not fulfilled.

Recorded results for 4 molecules are shown here.
INSERT INTO measurements (molecule, label_class) VALUES
  ('CC(C)S(=O)(=O)c1ccc2nccc(Nc3ccc4scnc4c3)c2c1', 'Not fulfilled'),
  ('CC[C@@]1(O)C(=O)OCc2c1cc1n(c2=O)Cc2cc3c(CN(C)C)c(O)ccc3nc2-1 [Topotecan hydrochloride]', 'Fulfilled'),
  ('CCc1c2c(nc3ccc(OC(=O)N4CCC(N5CCCCC5)CC4)cc13)-c1cc3c(c(=O)n1C2)COC(=O)[C@]3(O)CC [Irinotecan hydrochloride trihydrate]', 'Not fulfilled'),
  ('Nc1nc(Cl)nc2c1ncn2[C@@H]1O[C@H](CO)[C@@H](O)[C@@H]1F', 'Fulfilled');

query: State whether 0.2 exceeds cell viability recorded for CCc1c2c(nc3ccc(OC(=O)N4CCC(N5CCCCC5)CC4)cc13)-c1cc3c(c(=O)n1C2)COC(=O)[C@]3(O)CC [Irinotecan] .
result: Not fulfilled

query: State whether 0.2 exceeds cell viability recorded for "N#CN=C(NCCCCCCOc1ccc(Cl)cc1)Nc1ccncc1" .
result: Fulfilled

query: State whether 0.2 exceeds cell viability recorded for CN(C)Cc1ccc(S(=O)(=O)n2ccc(/C=C/C(=O)NO)c2)cc1 [Resminostat hydrochloride] .
result: Not fulfilled

query: State whether 0.2 exceeds cell viability recorded for "OC[C@@H](O)[C@@H](O)[C@@H](O)[C@@H](O)CO" .
result: Not fulfilled

query: State whether 0.2 exceeds cell viability recorded for "Cc1[nH]c2ccccc2c1CCNCc1ccc(/C=C/C(=O)NO)cc1" .
result: Fulfilled

query: State whether 0.2 exceeds cell viability recorded for "Cc1[nH]c2ccccc2c1CCNC(=O)c1cccs1" .
result: Not fulfilled

query: State whether 0.2 exceeds cell viability recorded for "O=C1CSc2ccccc2N1Cc1cccc(C(F)(F)F)c1" .
result: Not fulfilled

query: State whether 0.2 exceeds cell viability recorded for N=C(NCCCCCCNC(=N)NC(=N)Nc1ccc(Cl)cc1)NC(=N)Nc1ccc(Cl)cc1 [Chlorhexidine hydrochloride] .
result: Not fulfilled

query: State whether 0.2 exceeds cell viability recorded for N=C(NCCCCCCNC(=N)NC(=N)Nc1ccc(Cl)cc1)NC(=N)Nc1ccc(Cl)cc1 [Chlorhexidine] .
result: Not fulfilled

query: State whether 0.2 exceeds cell viability recorded for CC[C@@]1(O)C(=O)OCc2c1cc1n(c2=O)Cc2cc3cc(O)ccc3nc2-1 [Hydroxy Camptothecine] .
result: Fulfilled
